The values you see were collected from ChEMBL document CHEMBL3885861.

Please respond with reported LDH for every item in the list.
# Species: Rattus norvegicus
# PROTOCOL: Open TG-GATES - Regimen: Single
# Type: toxicity, organism-based, Sprague-Dawley
# Design: regimen Single, gender Male, age 6 weeks
# CONDITION_NOTES: in vivo, po, 0 mg/kg, 3 h, tissue Plasma, route gavage, dose level Control
One number for each entry, in IU/L.

Record LDH per entry; entries follow.
1. CN1C(=O)CCS(=O)(=O)C1c1ccc(Cl)cc1 (centres undefined)
2. CCCc1cc(=O)[nH]c(=S)[nH]1
3. O=C(OC[C@H]1O[C@@H](OC(=O)c2cc(O)c(O)c(OC(=O)c3cc(O)c(O)c(O)c3)c2)[C@H](OC(=O)c2cc(O)c(O)c(OC(=O)c3cc(O)c(O)c(O)c3)c2)[C@@H](OC(=O)c2cc(O)c(O)c(OC(=O)c3cc(O)c(O)c(O)c3)c2)[C@@H]1OC(=O)c1cc(O)c(O)c(OC(=O)c2cc(O)c(O)c(O)c2)c1)c1cc(O)c(O)c(OC(=O)c2cc(O)c(O)c(O)c2)c1
4. CNC(=C[N+](=O)[O-])NCCSCc1ccc(CN(C)C)o1
5. Cc1nnc2n1-c1ccc(Cl)cc1C(c1ccccc1Cl)=NC2
6. CC(C)NNC(=O)c1ccncc1
7. CS(=O)(=O)O.Cc1ccc(NC(=O)c2ccc(CN3CCN(C)CC3)cc2)cc1Nc1nccc(-c2cccnc2)n1 [IMATINIB MESYLATE]
8. CCOc1ccc(NC(C)=O)cc1

Response:
[58.2, 87.6, 74.4, 130.4, 100, 225, 215.6, 115.4]

Record LDH per entry; entries follow.
1. CN(C)CCC(c1ccc(Cl)cc1)c1ccccn1 (centres undefined)
2. Nc1c2c(nc3ccccc13)CCCC2
3. CN/C(=N/CCSCc1nc[nH]c1C)NC#N
4. COC(=O)C1=C(C)NC(C)=C(C(=O)OC)C1c1ccccc1[N+](=O)[O-]
5. Brc1ccccc1
6. NC1=NC(=O)C(c2ccccc2)O1 (centres undefined)

Response:
215.8
229
134.2
90.8
84.2
69.6

----------
# Species: Rattus norvegicus
# PROTOCOL: Open TG-GATES - Regimen: Daily Repeat
# Format: toxicity, organism-based, Sprague-Dawley
# Parameters: regimen Daily Repeat, gender Male, age 6 weeks
# CONDITION_NOTES: in vivo, po, 1000 mg/kg, […], tissue Blood, route gavage, dose level High, time 14 day
REPORTED_ENDPOINT: Mono (%)
Numbers only, in %.

Below, 2 molecules whose answers are already recorded.
Request: Mono for COC(=O)C1=C(C)NC(C)=C(C(=O)OC)C1c1ccccc1[N+](=O)[O-] [NIFEDIPINE] ?
Response: 3

Request: Try O=C(OC[C@H]1O[C@@H](OC(=O)c2cc(O)c(O)c(OC(=O)c3cc(O)c(O)c(O)c3)c2)[C@H](OC(=O)c2cc(O)c(O)c(OC(=O)c3cc(O)c(O)c(O)c3)c2)[C@@H](OC(=O)c2cc(O)c(O)c(OC(=O)c3cc(O)c(O)c(O)c3)c2)[C@@H]1OC(=O)c1cc(O)c(O)c(OC(=O)c2cc(O)c(O)c(O)c2)c1)c1cc(O)c(O)c(OC(=O)c2cc(O)c(O)c(O)c2)c1 [TANNIC ACID] next.
Response: 9.4

Record Mono per entry; entries follow.
1. Cc1nnc2n1-c1ccc(Cl)cc1C(c1ccccc1Cl)=NC2 [TRIAZOLAM]
2. CCOc1ccc(NC(C)=O)cc1 [PHENACETIN]

Response:
1. 2.6
2. 3.2

Record Mono per entry; entries follow.
1. CNC(=C[N+](=O)[O-])NCCSCc1ccc(CN(C)C)o1 [RANITIDINE]
2. CN/C(=N/CCSCc1nc[nH]c1C)NC#N [CIMETIDINE]

Response:
2.4
2.2

----------
# Species: Rattus norvegicus
# PROTOCOL: Open TG-GATES - Regimen: Single
# Type: toxicity, organism-based, Sprague-Dawley
# Set-up: regimen Single, gender Male, age 6 weeks
# CONDITION_NOTES: in vivo, po, 0 mg/kg, 9 h, tissue Plasma, route gavage, dose level Control
Please respond with reported AST for every item in the list.
Answers are plain numbers, in IU/L.

Below, 4 compounds whose answers are already recorded.
Request: AST for CN1C(=O)CCS(=O)(=O)C1c1ccc(Cl)cc1 (stereo not given) ?
Response: 67.8

Request: Try CN(C)CCC(c1ccc(Cl)cc1)c1ccccn1 (stereo not given) next.
Response: 73.8

Request: Try `Nc1c2c(nc3ccccc13)CCCC2` next.
Response: 72.6

Request: Try `COC(=O)C1=C(C)NC(C)=C(C(=O)OC)C1c1ccccc1[N+](=O)[O-]` next.
Response: 67

Now look at this entry.
Request: AST for NC1=NC(=O)C(c2ccccc2)O1 (stereo not given) ?
Response: 74.8

----------
# Species: Rattus norvegicus
# PROTOCOL: Open TG-GATES - Regimen: Daily Repeat
# Assay type: toxicity, organism-based, Sprague-Dawley
# Set-up: regimen Daily Repeat, gender Male, age 6 weeks
# CONDITION_NOTES: in vivo, po, 1000 mg/kg, […], route gavage, dose level High, time 28 day
REPORTED_ENDPOINT: TERMINAL_BW (g)
Give bare numbers, in g.

Below, 3 molecules whose answers are already recorded.
Request: TERMINAL_BW for `CNC(=C[N+](=O)[O-])NCCSCc1ccc(CN(C)C)o1` ?
Response: 379.9

Request: Try `Cc1nnc2n1-c1ccc(Cl)cc1C(c1ccccc1Cl)=NC2` next.
Response: 383.1

Request: Try `CN/C(=N/CCSCc1nc[nH]c1C)NC#N` next.
Response: 396.8

Record TERMINAL_BW per entry; entries follow.
1. O=C(OC[C@H]1O[C@@H](OC(=O)c2cc(O)c(O)c(OC(=O)c3cc(O)c(O)c(O)c3)c2)[C@H](OC(=O)c2cc(O)c(O)c(OC(=O)c3cc(O)c(O)c(O)c3)c2)[C@@H](OC(=O)c2cc(O)c(O)c(OC(=O)c3cc(O)c(O)c(O)c3)c2)[C@@H]1OC(=O)c1cc(O)c(O)c(OC(=O)c2cc(O)c(O)c(O)c2)c1)c1cc(O)c(O)c(OC(=O)c2cc(O)c(O)c(O)c2)c1
2. COC(=O)C1=C(C)NC(C)=C(C(=O)OC)C1c1ccccc1[N+](=O)[O-]
3. CCOc1ccc(NC(C)=O)cc1

Response:
1: 390.8; 2: 388.3; 3: 363.6

----------
# Species on record: Rattus norvegicus
# PROTOCOL: Open TG-GATES - Regimen: Single
# Format: toxicity, organism-based, Sprague-Dawley
# Design: regimen Single, gender Male, age 6 weeks
# CONDITION_NOTES: in vivo, po, 1000 mg/kg, 24 h, tissue Blood, route gavage, dose level High
Please respond with reported Bas for every item in the list.
Answers are plain numbers, in %.

Request: Bas for COC(=O)C1=C(C)NC(C)=C(C(=O)OC)C1c1ccccc1[N+](=O)[O-] [NIFEDIPINE] ?
Response: 0.2

Request: Try CNC(=C[N+](=O)[O-])NCCSCc1ccc(CN(C)C)o1 [RANITIDINE] next.
Response: 0.2

Request: Try Cc1nnc2n1-c1ccc(Cl)cc1C(c1ccccc1Cl)=NC2 [TRIAZOLAM] next.
Response: 0.2

Record Bas per entry; entries follow.
1. CN/C(=N/CCSCc1nc[nH]c1C)NC#N [CIMETIDINE]
2. O=C(OC[C@H]1O[C@@H](OC(=O)c2cc(O)c(O)c(OC(=O)c3cc(O)c(O)c(O)c3)c2)[C@H](OC(=O)c2cc(O)c(O)c(OC(=O)c3cc(O)c(O)c(O)c3)c2)[C@@H](OC(=O)c2cc(O)c(O)c(OC(=O)c3cc(O)c(O)c(O)c3)c2)[C@@H]1OC(=O)c1cc(O)c(O)c(OC(=O)c2cc(O)c(O)c(O)c2)c1)c1cc(O)c(O)c(OC(=O)c2cc(O)c(O)c(O)c2)c1 [TANNIC ACID]

Response:
1: 0; 2: 0

----------
# Species on record: Rattus norvegicus
# PROTOCOL: Open TG-GATES - Regimen: Single
# Format: toxicity, organism-based, Sprague-Dawley
# Design: regimen Single, gender Male, age 6 weeks
# CONDITION_NOTES: in vivo, po, 0 mg/kg, 3 h, tissue Plasma, route gavage, dose level Control
REPORTED_ENDPOINT: RALB (g/dL)
Numbers only, in g/dL.

Below, 4 molecules whose answers are already recorded.
Request: RALB for `COC(=O)C1=C(C)NC(C)=C(C(=O)OC)C1c1ccccc1[N+](=O)[O-]` ?
Response: 2.5

Request: Try CS(=O)(=O)O.Cc1ccc(NC(=O)c2ccc(CN3CCN(C)CC3)cc2)cc1Nc1nccc(-c2cccnc2)n1 [IMATINIB MESYLATE] next.
Response: 4.1

Request: Try CN1C(=O)CCS(=O)(=O)C1c1ccc(Cl)cc1 (stereo unspecified) next.
Response: 2.7

Request: Try NC1=NC(=O)C(c2ccccc2)O1 (stereo unspecified) next.
Response: 2.6

Record RALB per entry; entries follow.
1. Nc1c2c(nc3ccccc13)CCCC2
2. Cc1nnc2n1-c1ccc(Cl)cc1C(c1ccccc1Cl)=NC2

Response:
3
2.5
